Reported AC50 values are given for each entry in this list.
target: Histamine H1 receptor (Homo sapiens); further: assay procedure not described here
Sequence (P35367 whole entry): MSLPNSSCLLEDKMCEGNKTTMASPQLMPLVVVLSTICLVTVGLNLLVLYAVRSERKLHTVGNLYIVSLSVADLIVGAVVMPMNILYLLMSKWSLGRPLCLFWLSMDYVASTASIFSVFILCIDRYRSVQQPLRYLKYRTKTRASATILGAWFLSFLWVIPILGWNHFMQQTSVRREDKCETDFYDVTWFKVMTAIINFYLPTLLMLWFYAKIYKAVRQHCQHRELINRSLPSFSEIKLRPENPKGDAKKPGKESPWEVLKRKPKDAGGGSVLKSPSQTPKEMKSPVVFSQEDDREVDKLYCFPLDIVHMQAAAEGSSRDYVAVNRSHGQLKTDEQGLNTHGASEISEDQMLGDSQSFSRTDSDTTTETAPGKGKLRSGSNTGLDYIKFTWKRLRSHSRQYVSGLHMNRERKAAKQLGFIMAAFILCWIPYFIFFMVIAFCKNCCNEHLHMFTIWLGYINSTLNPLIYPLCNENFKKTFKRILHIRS

Please review the following examples before continuing.
NS(=O)(=O)c1cc2c(cc1C(F)(F)F)NC(Cc1ccccc1)NS2(=O)=O (centres undefined) [BENDROFLUMETHIAZIDE]
> 10 µM
CCC(=O)O[C@@H](O[P@](=O)(CCCCc1ccccc1)CC(=O)N1C[C@H](C2CCCCC2)C[C@H]1C(=O)O)C(C)C
> 30 µM
C=C[C@@]1(C)CC(=O)[C@]2(O)[C@@]3(C)[C@@H](O)CCC(C)(C)[C@@H]3[C@H](OC(=O)CCN(C)C)[C@H](OC(C)=O)[C@@]2(C)O1
> 30 µM

Pending compound:
Prompt: Find the measured AC50: item C#Cc1cccc(Nc2ncnc3cc(OCCOC)c(OCCOC)cc23)c1 , target or system Histamine H1 receptor (Homo sapiens). Further: assay procedure not described here.
Response: > 30 µM
